target: PI 3-kinase beta (Homo sapiens); test: Kinase Glo Luminescent Kinase Assay (Kglo), assay B; assay type: biochemical; details: read-out: Assay B PI3Kβ IC50
Sequence (P42338 whole entry): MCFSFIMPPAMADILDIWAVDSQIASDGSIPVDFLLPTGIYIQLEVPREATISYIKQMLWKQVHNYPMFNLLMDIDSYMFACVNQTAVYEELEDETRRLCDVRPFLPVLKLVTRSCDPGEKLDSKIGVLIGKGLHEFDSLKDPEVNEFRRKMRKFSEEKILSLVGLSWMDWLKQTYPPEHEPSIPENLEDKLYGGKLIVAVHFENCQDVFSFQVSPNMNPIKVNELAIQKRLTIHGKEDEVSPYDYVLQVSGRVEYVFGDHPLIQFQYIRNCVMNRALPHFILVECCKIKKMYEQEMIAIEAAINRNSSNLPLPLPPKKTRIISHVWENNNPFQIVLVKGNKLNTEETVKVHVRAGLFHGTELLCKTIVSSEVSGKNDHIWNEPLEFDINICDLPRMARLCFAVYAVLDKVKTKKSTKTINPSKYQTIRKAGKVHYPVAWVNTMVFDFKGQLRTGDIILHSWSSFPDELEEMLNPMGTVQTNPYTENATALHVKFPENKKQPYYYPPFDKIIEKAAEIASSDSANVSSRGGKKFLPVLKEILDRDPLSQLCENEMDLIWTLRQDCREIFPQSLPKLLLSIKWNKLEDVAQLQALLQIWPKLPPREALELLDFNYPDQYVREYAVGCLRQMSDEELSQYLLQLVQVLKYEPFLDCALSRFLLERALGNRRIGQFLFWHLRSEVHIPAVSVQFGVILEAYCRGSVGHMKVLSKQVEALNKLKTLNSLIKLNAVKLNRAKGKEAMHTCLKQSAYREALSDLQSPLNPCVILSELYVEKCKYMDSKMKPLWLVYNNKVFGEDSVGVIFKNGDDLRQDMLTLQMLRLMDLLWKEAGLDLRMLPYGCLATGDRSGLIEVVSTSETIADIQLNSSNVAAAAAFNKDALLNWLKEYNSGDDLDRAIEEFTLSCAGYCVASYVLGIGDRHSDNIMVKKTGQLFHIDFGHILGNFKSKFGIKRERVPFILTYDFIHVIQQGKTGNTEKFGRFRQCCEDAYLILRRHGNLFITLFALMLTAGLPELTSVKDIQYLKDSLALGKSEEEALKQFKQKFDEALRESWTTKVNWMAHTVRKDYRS
Sequence (P27986 461-568 partner): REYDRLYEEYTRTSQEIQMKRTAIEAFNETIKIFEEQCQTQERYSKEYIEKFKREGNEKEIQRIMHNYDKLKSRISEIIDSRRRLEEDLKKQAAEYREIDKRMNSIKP
pIC50: −log10 of the molar value.
# pIC50 annotations

| SMILES STRING | pIC50 |
| --- | --- |
| Cc1ccc(S(=O)(=O)NC[C@H]2C[C@@H](O)C2)cc1-c1cnc(N)c(-n2cncn2)n1 | 5.57 |
| Cc1ccc(S(=O)(=O)NCCC(C)(C)O)cc1-c1cnc(N)c(-c2cc[nH]n2)n1 | 5.63 |
| Cc1ccc(S(=O)(=O)NCCC(C)(C)O)cc1-c1cnc(N)c(-n2cncn2)n1 | 5.41 |
| Cc1ncc(-c2nc(-c3cc(S(=O)(=O)NCC4(CO)CCOCC4)ccc3C)cnc2N)s1 | 6.49 |
